This listing pairs molecules with measured XylE (0.5).
test system: hrtAB-driven expression of the xylE reporter gene; test: XylE reporter assay (hrtAB promoter-xylE), Newman; format: cell-based, Staphylococcus aureus; conditions: level of XylE induction at 0.5 uM of the compound
Observation Type: XylE (0.5)

INSERT INTO assay_data (molecule, target_entity, experimental_result) VALUES
  ('O=C(Nc1ccc(C(F)(F)F)cc1)c1cc(S(=O)(=O)NCc2ccc(F)cc2)ccc1F', 'hrtAB-driven expression of the xylE reporter gene', 0),
  ('CCC(C)NC(=O)c1sc2nc(C)nc(N3CCCCC3)c2c1C (stereo not shown)', 'hrtAB-driven expression of the xylE reporter gene', 1),
  ('O=c1oc2ccccc2c(O)c1C(c1ccc([N+](=O)[O-])o1)c1c(O)c2ccccc2oc1=O', 'hrtAB-driven expression of the xylE reporter gene', 0.02),
  ('COc1ccc(Br)cc1C(=O)NC(=S)Nc1cc(C)c(C)cc1O [drawing 63]', 'hrtAB-driven expression of the xylE reporter gene', 0.8),
  ('COC(=O)CCNc1nc(-c2ccc(Br)cc2)nc2ccccc12', 'hrtAB-driven expression of the xylE reporter gene', 0.03),
  ('O=C(O)C1CSC(c2cccnc2)=N1 (stereo not shown)', 'hrtAB-driven expression of the xylE reporter gene', 1),
  ('CCc1ccc2oc(-c3ccc(NC(=O)c4ccccc4OC)cc3)nc2c1', 'hrtAB-driven expression of the xylE reporter gene', 0.05),
  ('Cc1cccc(C(=O)N2N=C(c3cccc(Br)c3)CC2(C)C(F)(F)F)c1 (stereo not shown)', 'hrtAB-driven expression of the xylE reporter gene', 0.04),
  ('CSc1ccc(NC=C2C(=O)CC(C)(C)CC2=O)cc1', 'hrtAB-driven expression of the xylE reporter gene', 0.05),
  ('O=S(=O)(Nc1cc(Cl)ccc1Cl)c1ccc(Cl)cc1', 'hrtAB-driven expression of the xylE reporter gene', 0.07),
  ('Brc1ccc(-c2nc(NCc3ccccc3)c3ccccc3n2)cc1', 'hrtAB-driven expression of the xylE reporter gene', 1),
  ('Nc1ccccc1C(=O)Nc1nc2ccc(Cl)cc2s1', 'hrtAB-driven expression of the xylE reporter gene', 0.01),
  ('Oc1c(-c2cc(-c3ccco3)[nH]n2)ccc2ccccc12 [drawing 25]', 'hrtAB-driven expression of the xylE reporter gene', 0.06),
  ('CCN(CC)S(=O)(=O)c1cc(C(=O)NC2CCCCCC2)ccc1Cl', 'hrtAB-driven expression of the xylE reporter gene', 1),
  ('Cc1cccc(NC(=O)c2cc3ccccc3cc2O)c1', 'hrtAB-driven expression of the xylE reporter gene', 0.09),
  ('O=c1c2ccccc2nc(/C=C\c2ccccc2Cl)n1-c1ccccc1O', 'hrtAB-driven expression of the xylE reporter gene', 1),
  ('CCOC(=O)c1c(NC(=O)c2ccccc2)sc(C(C)=O)c1-c1ccccc1', 'hrtAB-driven expression of the xylE reporter gene', 1),
  ('CC(NC(=O)C1(c2ccccc2)CCCC1)C1COc2ccccc2O1 (stereo not shown) [drawing 26]', 'hrtAB-driven expression of the xylE reporter gene', 0.05),
  ('COc1ccc(Br)cc1C(=O)NC(=S)Nc1cc(C)c(C)cc1O [drawing 24]', 'hrtAB-driven expression of the xylE reporter gene', 0.3),
  ('CC1=NN(c2ccccc2)C(=O)/C1=N\Nc1ccccc1O', 'hrtAB-driven expression of the xylE reporter gene', 0.05),
  ('Cc1cccc(C(=O)Nc2ccc(-c3nc4ccccc4o3)cc2)c1 [drawing 27]', 'hrtAB-driven expression of the xylE reporter gene', 0.09),
  ('COc1ccc(OC(=O)c2ccc(N3C(=O)C4C5CCC(C5)C4C3=O)cc2)cc1 (stereo not shown)', 'hrtAB-driven expression of the xylE reporter gene', 0.09);
